Molecular target: T1, Human PD-1-His protein (Cat. #10377H08H, Sino Biological) (human, UniProt Q15116 25-167)
T1 construct: Bought protein; also called hPD-1-His; hu PD-1-his; not shown: His tag of the bought protein
T1 sequence (Q15116 25-167 limits assumed): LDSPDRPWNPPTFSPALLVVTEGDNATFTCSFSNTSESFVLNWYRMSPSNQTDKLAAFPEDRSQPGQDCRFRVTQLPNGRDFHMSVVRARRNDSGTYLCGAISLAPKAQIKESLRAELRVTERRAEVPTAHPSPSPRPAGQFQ
Assay: SPR (Biacore), antibody captured on Protein A chip, PD-1 in flow
recordedEndpoint: log10(koff) (log10 of the value in s⁻¹)

Hu32a-57.IgG4AA (antibody, V domains shown, Full-length IgG4-AA, kappa) VH: EVQLVQSGAEVKKPGSSVKVSCKASGFTFSDYEIHWVRQAPGQGLEWIGLFDPETGGIVYNQKFKGRATLTADKSTSTAYMEFSSLRSEDTAVYYCTREGYNRDWYFDVWGQGTTVTVSS VL: DIVMTQTPLSLPVTPGEPASISCRSSQSLVHSTGNTYLEWYLQKPGQSPQLLIYKVSNRFSGVPDRFSGSGSGTDFTLKISRVEAEDVGVYYCFQGSHVPYTFGGGTKVEIKR :: -3.20
Hu23-13.IgG4AA (antibody, V domains shown, Full-length IgG4-AA, kappa; also called Hu23LCDR1 (G29A)) VH: EVQLVQSGAEVKKPGSSVKVSCKASGGTFSDYEMHWVRQAPGQGLEWMGLIDPETGGTVYNQKFKDRVTITADKSTSTAYMELSSLRSEDTAVYYCARERFSYYGSTSDWYFDVWGQGTTVTVSS VL: DIVMTQTPLSLPVTPGEPASISCRSSQSLVHSNANTYLEWYLQKPGQSPQLLIYKVSNRFSGVPDRFSGSGSGTDFTLKISRVEAEDVGVYYCFQGSHVPYTFGGGTKVEIKR :: -3.91
Hu32a-85.IgG4AA (antibody, V domains shown, Full-length IgG4-AA, kappa) VH: EVQLVQSGAEVKKPGSSVKVSCKASDFTFTDYEIHWVKQAPGHGLEWIGLFDPETGGIVYNQKFKGKATLTADKSTSTAYMEFSSLRSEDTAVYYCTREGYNRDWYFDVWGQGTTVTVSS VL: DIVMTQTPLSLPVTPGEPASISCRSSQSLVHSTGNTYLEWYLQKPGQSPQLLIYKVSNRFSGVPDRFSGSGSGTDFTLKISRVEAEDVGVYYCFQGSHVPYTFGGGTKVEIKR :: -3.50
Hu32a-29.IgG4AA (antibody, V domains shown, Full-length IgG4-AA, kappa) VH: EVQLVQSGAEVKKPGSSVKVSCKASGFTFSDYEIHWVRQAPGQGLEWMGLFDPETGGIVYNQKFKGRVTLTADKSTSTAYMELSSLRSEDTAVYYCTREGYNRDWYFDVWGQGTTVTVSS VL: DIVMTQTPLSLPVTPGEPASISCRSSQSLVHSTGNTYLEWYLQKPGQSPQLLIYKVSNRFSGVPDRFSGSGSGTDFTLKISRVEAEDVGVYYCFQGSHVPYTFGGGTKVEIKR :: -3.21
Hu23-12.IgG4AA (antibody, V domains shown, Full-length IgG4-AA, kappa; also called Hu23LCDR1 (N28D)) VH: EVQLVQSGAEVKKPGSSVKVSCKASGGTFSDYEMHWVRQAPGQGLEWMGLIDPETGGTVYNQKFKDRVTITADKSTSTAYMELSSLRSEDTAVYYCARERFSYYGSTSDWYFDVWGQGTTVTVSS VL: DIVMTQTPLSLPVTPGEPASISCRSSQSLVHSDGNTYLEWYLQKPGQSPQLLIYKVSNRFSGVPDRFSGSGSGTDFTLKISRVEAEDVGVYYCFQGSHVPYTFGGGTKVEIKR :: -3.96
Hu23-14.IgG4AA (antibody, V domains shown, Full-length IgG4-AA, kappa; also called Hu23LCDR1 (G29V)) VH: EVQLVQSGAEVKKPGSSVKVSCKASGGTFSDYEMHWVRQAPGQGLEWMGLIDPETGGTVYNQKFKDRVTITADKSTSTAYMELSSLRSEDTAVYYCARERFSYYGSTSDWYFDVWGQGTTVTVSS VL: DIVMTQTPLSLPVTPGEPASISCRSSQSLVHSNVNTYLEWYLQKPGQSPQLLIYKVSNRFSGVPDRFSGSGSGTDFTLKISRVEAEDVGVYYCFQGSHVPYTFGGGTKVEIKR :: -3.79
Hu23-10.IgG4AA (antibody, V domains shown, Full-length IgG4-AA, kappa; also called Hu23LCDR1 (N28L)) VH: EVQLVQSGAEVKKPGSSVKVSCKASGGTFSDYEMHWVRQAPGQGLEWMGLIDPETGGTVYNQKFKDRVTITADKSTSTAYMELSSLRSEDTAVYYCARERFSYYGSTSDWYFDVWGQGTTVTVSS VL: DIVMTQTPLSLPVTPGEPASISCRSSQSLVHSLGNTYLEWYLQKPGQSPQLLIYKVSNRFSGVPDRFSGSGSGTDFTLKISRVEAEDVGVYYCFQGSHVPYTFGGGTKVEIKR :: -3.82
murine antibody M33 (antibody, V domains shown) VH: KVMLVESGGGLVKPGGSLKLSCAASGFTFSSYAMSWVRQTPEKRLEWVATISGGGVDTYYQDNVQGRFTISRDNAKNTLYLQMSSLRSEDTALYYCASPYGHGYFDVWGTGTTVTVSS VL: DIQMTQTTSSLSASLGDRVTISCRASQDINNFLNWYQQKPDGTVKLLIYYTSSLHSGVPSRFSGSGSGTDYSLTISNLEQEDIATYFCQQGNTLPWTFGGGTKLEIK :: -3.64
Hu33-7.IgG4AA (antibody, V domains shown, Full-length IgG4-AA, kappa) VH: EVQLVESGGGLVQPGGSLRLSCAASGFTFSSYAMSWVRQAPGKGLEWVATISGGGVDTYYQDNVQGRFTISRDNAKNSLYLQMNSLRAEDTAVYYCARPYGHGYFDVWGQGTTVTVSS VL: DIQMTQSPSSLSASVGDRVTITCRASQDINNFLNWYQQKPGGAVKLLIYYTSSLHSGVPSRFSGSGSGTDYTLTISSLQPEDFATYYCQQGNTLPWTFGGGTKVEIKR :: -2.59
Hu33-4.IgG4AA (antibody, V domains shown, Full-length IgG4-AA, kappa) VH: EVQLVESGGGLVQPGGSLRLSCAASGFTFSSYAMSWVRQAPGKGLEWVATISGGGVDTYYQDNVQGRFTISRDNAKNSLYLQMNSLRAEDTAVYYCARPYGHGYFDVWGQGTTVTVSS VL: DIQMTQSPSSLSASVGDRVTITCRASQDINNFLNWYQQKPGKAPKLLIYYTSSLHSGVPSRFSGSGSGTDYTLTISSLQPEDFATYYCQQGNTLPWTFGGGTKVEIKR :: -2.59
